# tgt: TEAD4 (Homo sapiens, UniProt Q15561)
# Sequence (Q15561 whole entry, species assumed): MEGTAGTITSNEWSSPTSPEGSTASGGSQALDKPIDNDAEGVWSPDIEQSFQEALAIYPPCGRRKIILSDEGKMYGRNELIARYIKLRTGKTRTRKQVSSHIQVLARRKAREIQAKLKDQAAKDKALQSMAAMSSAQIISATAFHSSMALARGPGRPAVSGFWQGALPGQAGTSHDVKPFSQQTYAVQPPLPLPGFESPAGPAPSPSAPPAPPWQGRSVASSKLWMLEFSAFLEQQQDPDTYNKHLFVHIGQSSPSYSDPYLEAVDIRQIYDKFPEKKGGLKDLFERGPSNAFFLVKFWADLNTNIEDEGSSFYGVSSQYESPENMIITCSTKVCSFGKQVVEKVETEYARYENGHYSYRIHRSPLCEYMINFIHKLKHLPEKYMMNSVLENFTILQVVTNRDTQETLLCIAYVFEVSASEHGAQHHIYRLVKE
# assay protocol: Thermal shift assay TEAD4
# Format: binding
property label: TEAD4 ΔTm
A complete answer gives the number and then names the unit.

molecule | tgt | experimental value
Cn1cc2cc(Oc3ccc(C(F)(F)F)cc3)cc([C@@H]3C[C@H]3C(=O)N3CC4CC3C(=O)N4)c2n1 (single isomer, unassigned) | TEAD4 (Homo sapiens, UniProt Q15561) | 8.9 °C
O=C(O)[C@@H]1CC1c1cc(-c2ccc(C(F)(F)F)cc2)cc2cccnc12 (mixture of isomers) | TEAD4 (Homo sapiens, UniProt Q15561) | 8.3 °C
CNS(=O)(=O)[C@@H]1CC1c1cc(-c2ccc(C(F)(F)F)cc2)cc2cn(C)nc12 (mixture of isomers) | TEAD4 (Homo sapiens, UniProt Q15561) | 5.7 °C
Cn1cc2cc(Oc3ccc(C(F)(F)F)cc3)cc(C3C[C@H]3C(=O)N3[C@@H]4CC[C@H]3C[C@H](O)C4)c2n1 (single isomer, unassigned) | TEAD4 (Homo sapiens, UniProt Q15561) | 8.1 °C
Cn1cc2cc(Oc3ccc(C(F)(F)F)cc3)cc([C@@H]3C[C@H]3C(=O)N3CCC34CC(=O)C4)c2n1 (single isomer, unassigned) | TEAD4 (Homo sapiens, UniProt Q15561) | 6.9 °C

Find the measured TEAD4 ΔTm of Cn1cc2nc(Oc3ccc(C(F)(F)F)cc3)cc([C@@H]3C[C@H]3C(=O)N3C[C@@H]4C[C@H]3CO4)c2n1 (single isomer, unassigned) and report it. 4.5 °C

---

# tgt: UniProt Q15561
# assay protocol: Thermal shift assay TEAD4
# Type: binding
# Protocol: Example B: Thermal Shift Assay 1) Prepare a fresh dilution of Protein Thermal Shift™ Dye (Applied Biosystems, 1000×) to 8× by […]. 2) To ensure the same DMSO concentration, the compounds were diluted as follows: Prepare 10 mM stock solution of compounds; The final DMSO concentration was 0.1% 10 μM: Diluting stock solution to 100 μM by using PBS. 1 μM: Diluting stock solution to 1 mM by using DMSO, then dilute to 10 μM by using PBS. […]
property label: TEAD4 ΔTm
Kindly format the answer as number then unit.

molecule | TEAD4 ΔTm
Cn1cc2nc(Oc3ccc(C(F)(F)F)cc3)nc([C@H]3C[C@@H]3C(=O)N3CC(O)C3)c2n1 (single isomer, unassigned) [Example 109b] | 3.4 °C
Cn1cc2cc(Oc3ccc(C(F)(F)F)cc3)cc([C@@H]3C[C@H]3C(=O)NCC#N)c2n1 (single isomer, unassigned) | 11.7 °C
Cn1cc2cc(-c3ccc(OC(F)(F)F)cc3)cc(C3C[C@H]3C(=O)O)c2n1 (mixture of isomers) | 11.5 °C

List reported TEAD4 ΔTm for each of these molecules:
1. Cn1cc2cc(N3CCC4(CCCC4)CC3)cc(C3C[C@H]3C(=O)N3C[C@H](O)[C@@H](O)C3)c2n1 (single isomer, unassigned)
2. Cn1cc2cc(Oc3ccc(C(F)(F)F)cc3)cc(C3C[C@H]3C(=O)N3CCC4(COC4)C3)c2n1 (single isomer, unassigned)
3. Cn1cc2cc(Oc3ccc(C(F)(F)F)cc3)cc([C@@H]3C[C@H]3C(=O)NCCO)c2n1 (single isomer, unassigned)
4. Cn1cc2cc(Oc3ccc(C(F)(F)F)cc3)cc(C3C[C@H]3C(=O)N3CCP(C)(=O)CC3)c2n1 (single isomer, unassigned)
5. Cn1cc2cc(Oc3ccc(C(F)(F)F)cc3)cc([C@@H]3C[C@H]3C(=O)N3CC(C)(O)C3)c2n1 (single isomer, unassigned)

2.6 °C
8.4 °C
9.6 °C
3.2 °C
12.3 °C

I'm hoping you can list TEAD4 ΔTm for every molecule here, please.
1. Cn1cc2cc(Oc3ccc(C(F)(F)F)cc3)cc([C@@H]3C[C@H]3C(=O)N3CCO[C@H](CO)C3)c2n1 (single isomer, unassigned)
2. Cn1cc2cc(Oc3ccc(F)c(F)c3)cc([C@H]3C[C@@H]3C(=O)N3CC(O)C3)c2n1 (single isomer, unassigned) [Example 90b]
3. CNC(=O)[C@@H]1CC1c1cc(-c2ccc(C(F)(F)F)cc2)cc2c1cnn2C (mixture of isomers) [Example 24]
4. CN(C)C(=O)[C@@H]1CC1c1cc(-c2ccc(C(F)(F)F)cc2)cc2c1cnn2C (mixture of isomers)
5. CO[C@H]1CN(C(=O)[C@@H]2C[C@H]2c2cc(Oc3ccc(C(F)(F)F)cc3)cc3cn(C)nc23)C[C@@H]1O (single isomer, unassigned) [Example 112a]
6. CNS(=O)(=O)CCc1cc(N(C)c2ccc(C(F)(F)F)cc2)cc2cn(C)nc12
7. C[C@@H](C#N)NC(=O)[C@@H]1C[C@H]1c1cc(Oc2ccc(C(F)(F)F)cc2)cc2cn(C)nc12 (single isomer, unassigned)

["10.4 °C", "10.3 °C", "2.4 °C", "1.7 °C", "8.6 °C", "5.1 °C", "12.9 °C"]

// for each molecule below, give its TEAD4 ΔTm
1. Cn1ncc2c(C3C[C@H]3C(=O)O)cc(Oc3ccc(C(F)(F)F)cc3)cc21 (mixture of isomers)
2. CO[C@@H]1CN(C(=O)[C@@H]2C[C@H]2c2cc(Oc3ccc(C(F)(F)F)cc3)cc3cn(C)nc23)C[C@H]1O (single isomer, unassigned) [Example 112b]
3. Cn1cc2cc(Oc3ccc(C(F)(F)F)cc3)cc([C@@H]3C[C@H]3C(=O)NC#N)c2n1 (single isomer, unassigned)
4. CNC(=O)[C@@H]1CC1c1cc(Oc2ccc(C(F)(F)F)cc2)cn2ccnc12 (mixture of isomers)
5. C[C@H](CO)NC(=O)[C@@H]1CC1c1cc(Oc2ccc(C(F)(F)F)cc2)cc2cn(C)nc12 (single isomer, unassigned)

1: 9.1 °C; 2: 10.1 °C; 3: 12.2 °C; 4: 3.1 °C; 5: 11.5 °C

Would you mind giving TEAD4 ΔTm for every molecule in the list below?
1. Cn1cc2cc(Oc3ccc(C(F)(F)F)cc3)cc([C@@H]3C[C@H]3C(=O)N[C@@H](CO)c3ccccn3)c2n1 (single isomer, unassigned) [Example 59b]
2. CNC(=O)[C@@H]1CC1c1cc(Oc2ccc(C(F)(F)F)cc2)cc2cccnc12 (mixture of isomers)

["15.6 °C", "6.2 °C"]

Batch request: TEAD4 ΔTm for each of the following molecules.
1. Cn1cc2cc(Oc3ccc(C(F)(F)F)cc3)cc([C@@H]3C[C@H]3C(=O)N3CC[C@@H](O)[C@H](O)C3)c2n1 (single isomer, unassigned) [Example 75b]
2. COCCNC(=O)[C@@H]1C[C@H]1c1cc(-c2ccc(C(F)(F)F)cc2)cc2c1cnn2C (racemic)
3. Cn1cc2cc(Oc3ccc(C(F)(F)F)cc3)cc(C3C[C@H]3C(=O)NC3CC4(CC(O)C4)C3)c2n1 (single isomer, unassigned)

1: 11.6 °C; 2: 0.9 °C; 3: 9.4 °C
